Biological target: full-length HAQ STING (Homo sapiens, UniProt Q86WV6, G230A/H232R/R293Q/R71H)
Construct: crude membrane preparation
Sequence (Q86WV6 with tags, fused parts or gaps R71H/G230A/H232R/R293Q): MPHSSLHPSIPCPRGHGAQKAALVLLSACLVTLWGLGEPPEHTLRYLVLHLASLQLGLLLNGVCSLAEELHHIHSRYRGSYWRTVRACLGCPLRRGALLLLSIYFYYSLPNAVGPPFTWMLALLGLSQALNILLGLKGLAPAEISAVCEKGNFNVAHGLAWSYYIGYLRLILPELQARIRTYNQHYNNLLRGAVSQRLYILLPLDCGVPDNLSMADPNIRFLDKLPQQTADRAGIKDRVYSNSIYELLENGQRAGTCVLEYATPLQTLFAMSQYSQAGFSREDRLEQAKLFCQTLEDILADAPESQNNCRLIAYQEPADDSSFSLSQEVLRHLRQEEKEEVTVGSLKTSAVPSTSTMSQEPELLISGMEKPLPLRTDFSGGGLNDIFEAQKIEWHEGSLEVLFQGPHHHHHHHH
Assay: 3H-cGAMP filtration binding assay (HAQ STING)
Conditions: competition with tritiated cGAMP ligand, HAQ STING membrane
Under this convention, t denotes EC50 strictly below 3000 nM and f denotes EC50 at or above 3000 nM.

>  <Compound>
COc1cc2sc(C(=O)CC(C)C(=O)O)cc2nc1OC (single isomer, unassigned) [Example 8]

>  <Group label>
t

$$$$
>  <Compound>
COc1cc2nc(C(=O)CC(C)C(=O)O)sc2cc1OC (single isomer, unassigned)

>  <Group label>
f

$$$$
>  <Compound>
COc1cc2nc(C(=O)CCC(=O)O)sc2cc1OC

>  <Group label>
f

$$$$
>  <Compound>
COc1cc2sc(C(=O)[C@H]3C[C@H]3C(=O)O)cc2nc1OC (single isomer, unassigned)

>  <Group label>
t

$$$$
>  <Compound>
CCCC(CC(=O)c1cc2nc(OC)c(OC)cc2s1)C(=O)O (single isomer, unassigned)

>  <Group label>
t

$$$$
>  <Compound>
COc1cc2sc(C(=O)CC(C)C(=O)O)cc2nc1OC (single isomer, unassigned) [Example 7]

>  <Group label>
f

$$$$
>  <Compound>
COc1cc2cc(C(=O)CCC(=O)O)sc2nc1OC

>  <Group label>
f

$$$$
>  <Compound>
CCC(CC(=O)c1cc2nc(OC)c(OC)cc2s1)C(=O)O (single isomer, unassigned) [Example 12]

>  <Group label>
t

$$$$

* * *

Molecular target: full-length HAQ STING (Homo sapiens, UniProt Q86WV6, G230A/H232R/R293Q/R71H)
Construct: crude membrane preparation
Assay: 3H-cGAMP filtration binding assay (HAQ STING)
Details: competition with tritiated cGAMP ligand, HAQ STING membrane
Measure: log10 EC50 (log10 of the value in µM)

>  <Molecule>
COc1cc2sc(C(=O)CC(C)C(=O)O)nc2c(F)c1OC (stereo not shown)

>  <Experimental target>
full-length HAQ STING (Homo sapiens, UniProt Q86WV6, G230A/H232R/R293Q/R71H)

>  <log10 EC50>
0.83

$$$$
>  <Molecule>
COc1cc2sc(C(=O)C[C@H](C)C(=O)O)nc2nc1OC

>  <Experimental target>
full-length HAQ STING (Homo sapiens, UniProt Q86WV6, G230A/H232R/R293Q/R71H)

>  <log10 EC50>
1.00

$$$$
>  <Molecule>
CCC(CC(=O)c1cc2nc(OC)c(OC)nc2s1)C(=O)O (single isomer, unassigned)

>  <Experimental target>
full-length HAQ STING (Homo sapiens, UniProt Q86WV6, G230A/H232R/R293Q/R71H)

>  <log10 EC50>
0.43

$$$$
>  <Molecule>
COc1nc2cc(C(=O)CC(C)C(=O)O)sc2nc1OC (single isomer, unassigned)

>  <Experimental target>
full-length HAQ STING (Homo sapiens, UniProt Q86WV6, G230A/H232R/R293Q/R71H)

>  <log10 EC50>
0.65

$$$$
>  <Molecule>
COc1nc2cc(C(=O)CCC(=O)O)sc2cc1Br

>  <Experimental target>
full-length HAQ STING (Homo sapiens, UniProt Q86WV6, G230A/H232R/R293Q/R71H)

>  <log10 EC50>
0.39

$$$$
>  <Molecule>
COc1nc2cc(C(=O)CCC(=O)O)sc2nc1OC

>  <Experimental target>
full-length HAQ STING (Homo sapiens, UniProt Q86WV6, G230A/H232R/R293Q/R71H)

>  <log10 EC50>
0.98

$$$$
>  <Molecule>
COc1cc2sc(C(=O)C[C@H](C)C(=O)O)nc2cc1Br

>  <Experimental target>
full-length HAQ STING (Homo sapiens, UniProt Q86WV6, G230A/H232R/R293Q/R71H)

>  <log10 EC50>
1.03

$$$$
>  <Molecule>
COc1cc2sc(C(=O)C[C@H](C)C(=O)O)cc2nc1Cl

>  <Experimental target>
full-length HAQ STING (Homo sapiens, UniProt Q86WV6, G230A/H232R/R293Q/R71H)

>  <log10 EC50>
-0.20

$$$$
>  <Molecule>
CCC(CC(=O)c1cc2nc(OC)c(OC)cc2s1)C(=O)O (single isomer, unassigned) [Example 11]

>  <Experimental target>
full-length HAQ STING (Homo sapiens, UniProt Q86WV6, G230A/H232R/R293Q/R71H)

>  <log10 EC50>
1.24

$$$$
>  <Molecule>
COc1cc2sc(C(=O)CCC(=O)O)cc2nc1OC

>  <Experimental target>
full-length HAQ STING (Homo sapiens, UniProt Q86WV6, G230A/H232R/R293Q/R71H)

>  <log10 EC50>
0.39

$$$$
